STUDY_TARGET: human recombinant phosphodiesterase IVa (met-248) (Homo sapiens, UniProt P27815)
Construct: human recombinant phosphodiesterase IVa (met-248); GST; made in house; host or cells: baculovirus/Sf-9
Sequence (P27815 248-886): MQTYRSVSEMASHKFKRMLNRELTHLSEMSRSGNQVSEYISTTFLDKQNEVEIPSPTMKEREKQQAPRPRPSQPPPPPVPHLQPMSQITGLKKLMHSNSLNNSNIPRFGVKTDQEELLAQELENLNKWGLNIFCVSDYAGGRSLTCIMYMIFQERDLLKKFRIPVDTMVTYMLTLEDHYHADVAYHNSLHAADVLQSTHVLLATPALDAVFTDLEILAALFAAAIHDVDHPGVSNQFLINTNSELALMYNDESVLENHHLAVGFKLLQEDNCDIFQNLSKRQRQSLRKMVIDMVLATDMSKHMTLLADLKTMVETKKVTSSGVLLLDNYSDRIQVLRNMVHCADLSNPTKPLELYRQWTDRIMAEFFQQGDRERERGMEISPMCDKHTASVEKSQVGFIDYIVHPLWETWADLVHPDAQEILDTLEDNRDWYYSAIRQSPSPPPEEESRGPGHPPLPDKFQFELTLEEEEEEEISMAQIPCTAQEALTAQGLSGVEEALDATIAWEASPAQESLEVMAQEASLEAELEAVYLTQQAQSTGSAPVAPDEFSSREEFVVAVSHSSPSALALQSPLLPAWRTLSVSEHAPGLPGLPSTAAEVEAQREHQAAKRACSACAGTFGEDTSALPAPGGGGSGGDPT
RUN_DESCRIPTION: SPA based PDE activity assay
Assay type: biochemical
TEST_CONDITIONS: 100 nM cAMP; purified GST fusion protein of human recombinant PDE IVa (met-248), baculovirus/Sf-9; read-out: IC50
ENDPOINT: pIC50
Just the number, please; pIC50 means minus log10 of the concentration in mol/L.

Lookup: Tell me pIC50 of CC(C)NC(=O)/C(=C/c1cccc(-c2cc(C(C)(C)C#N)cc3cccnc23)c1)c1ccc(S(C)(=O)=O)cc1 when tested on human recombinant phosphodiesterase IVa (met-248) (Homo sapiens, UniProt P27815).
Found: 9.12

* * *

Test system: GM-CSF
RUN_DESCRIPTION: Inhibition of LPS or Con A stimulated human whole blood: GM-CSF
Type: cell-based
TEST_CONDITIONS: read-out: Inhibition of LPS or Con A stimulate human whole blood, GM-CSF
ENDPOINT: pIC50
Entry type: numeric. Quantity: pIC50, the -log10 of concentration in molar units.

Lookup: Query pIC50 for Cc1c[n+]([O-])ccc1CC(c1ccc(C(O)(C(F)(F)F)C(F)(F)F)cc1)c1ccc(OC(F)F)c(OC(F)F)c1 (stereo not shown)
Found: 7.15

* * *

Tested on: IL-12
RUN_DESCRIPTION: Inhibition of LPS or Con A stimulated human whole blood: IL-12
Type: cell-based
TEST_CONDITIONS: read-out: Inhibition of LPS or Con A stimulate human whole blood, IL-12
ENDPOINT: pIC50
Conceptually, pIC50 converts a concentration in mol/L into minus its log10.

Lookup: Name the recorded pIC50 of the item Cc1c[n+]([O-])ccc1CC(c1ccc(C(O)(C(F)(F)F)C(F)(F)F)cc1)c1ccc(OC(F)F)c(OC(F)F)c1 (stereo not shown) in your answer.
Found: 6.89
